Below, each of the substances is paired with its reported Phage binding ELISA Backgroud signal value.
Tested on: anti-CD28 scFv
Test: Phage binding ELISA (panning) of clonal phage on anti-CD28 scFv, with or without CD28 soluble protein
Conditions: clonal phage supernatant; background signal
Answer with a bare number; do not write a unit.

Below are worked cases with known answers.
| Substance | Assayed Target | Phage binding ELISA Backgroud signal |
| --- | --- | --- |
| Phage-58 (MHWCPIDRWADCFN) | anti-CD28 scFv | 0.074 |
| Phage-293 (MDWCPRHLWFECFN) | anti-CD28 scFv | 0.064 |
| Phage-234 (MDWCPRALWFECFF) | anti-CD28 scFv | 0.111 |
| Phage-252 (MDWCPRHMWINCFA) | anti-CD28 scFv | 0.091 |
| Phage-361 (MHWCPRHLWSECFN) | anti-CD28 scFv | 0.165 |
| Phage-347 (MDWCPLFLWDQCFN) | anti-CD28 scFv | 0.116 |
| Phage-215 (MDWCPRYMWNECFN) | anti-CD28 scFv | 0.064 |
| Phage-40 (MDWCPIDMWDQCFN) | anti-CD28 scFv | 0.061 |
| Phage-45 (MDWCPRPLWHECFS) | anti-CD28 scFv | 0.078 |
| Phage-48 (IDWCPRYLWDECYN) | anti-CD28 scFv | 0.061 |

Qu. I have this substance here, Phage-60 (MDWCPRTLWYLCFN) , and I need its recorded Phage binding ELISA Backgroud signal.
Ans. 0.508

Qu. Phage-267 (MTLCLSVDLVHCWY) , same question.
Ans. 0.114

Qu. Next substance up: Phage-231 (VPWCLIISGLDCLN)
Ans. 0.455

Qu. Quick one: Phage-166 (MDWCPRHLWDLCFA)
Ans. 0.061

====

Test system: anti-CD28 scFv (SEQ ID NO: 9)
Experiment: Octet bio-layer interferometry kinetic binding of anti-CD28 scFv to peptides
Set-up: species or system human
Conditions: Octet RED96; biotinylated peptide loaded on streptavidin biosensor; anti-CD28 scFv in solution; 1:1 binding model
Measurement Label: kdis (s⁻¹)
Numbers only here, please. The scale is s⁻¹.

The following compounds have reported results that may help.
| Compound | Measurement Label | Obs Value |
| --- | --- | --- |
| CSCC[C@@H]1NC(=O)[C@H](Cc2c[nH]cn2)NC(=O)[C@H](CCCNC(=N)N)NC(=O)[C@@H]2CCCN2C(=O)[C@@H](NC(=O)[C@H](Cc2c[nH]c3ccccc23)NC(=O)[C@H](CC(=O)O)NC(=O)[C@@H](N)CCSC)CSSC[C@@H](C(=O)N[C@@H](Cc2ccccc2)C(=O)N[C@@H](C)C(=O)O)NC(=O)[C@H](Cc2ccc(O)cc2)NC(=O)[C@H](CC(N)=O)NC(=O)[C@H](Cc2c[nH]c3ccccc23)NC1=O [Peptide-46] | kdis | 0.00218 |
| CC[C@H](C)[C@@H]1NC(=O)[C@@H]2CCCN2C(=O)[C@@H](NC(=O)[C@H](Cc2c[nH]c3ccccc23)NC(=O)[C@H](CC(=O)O)NC(=O)[C@@H](N)CCSC)CSSC[C@@H](C(=O)N[C@@H](Cc2ccccc2)C(=O)N[C@@H](Cc2ccccc2)C(=O)O)NC(=O)[C@H](CCC(=O)O)NC(=O)[C@H](CC(N)=O)NC(=O)[C@H](Cc2c[nH]c3ccccc23)NC(=O)[C@H](CC(C)C)NC(=O)[C@H](CC(=O)O)NC1=O [Peptide-31] | kdis | 0.00369 |

Turning now to a further compound:
Qu. Please give the measured kdis for this compound: CSCC[C@H](N)C(=O)N[C@@H](CC(=O)O)C(=O)N[C@@H](Cc1c[nH]c2ccccc12)C(=O)N[C@H]1CSSC[C@@H](C(=O)N[C@@H](Cc2ccccc2)C(=O)N[C@@H](C)C(=O)O)NC(=O)[C@H](C(C)C)NC(=O)[C@H](CO)NC(=O)[C@H](Cc2c[nH]c3ccccc23)NC(=O)[C@H](CC(C)C)NC(=O)[C@H](Cc2c[nH]cn2)NC(=O)[C@H](C(C)C)NC(=O)[C@@H]2CCCN2C1=O [Peptide-50]
Ans. 0.00443

meta.source: patent US20230357447A1
